Note to self: these compounds have IC50 reported for Receptor tyrosine-protein kinase erbB-2 (Homo sapiens) in various publications.

// IC50 lookup, compound = "Fc1cccc(COc2ccc(Nc3ncnc4ccc(-c5ccc(CNCC6CCCCC6)o5)cc34)cc2Cl)c1" , result: > 10000 nM

Notebook: "CNS(=O)(=O)Cc1ccc(Nc2ncnc(Nc3cc(-c4ccc(C(=O)OC)cc4)n[nH]3)n2)cc1" , IC50 read as > 9100 nM

Lab note: measured IC50 of "Nc1ncnc(Nc2ccc3c(cnn3Cc3cccc(F)c3)c2)c1/C=N/OCCCN1CCCCC1" was 30 nM

Looking up "COCCN(C)/C(=N/C#N)NC/C=C/c1ccc2ncnc(Nc3ccc4c(cnn4Cc4cccc(F)c4)c3)c2c1" , I found its IC50 recorded as 17 nM

Reported IC50 for "CN(C/C=C/C(=O)N1CCOc2c1ccc1ncnc(Nc3ccc(OCc4ccccn4)c(Cl)c3)c21)CCO" was ≤ 50 nM

Kindly note the recorded IC50 for "CC(C)c1nc(-c2ccnc(NS(=O)(=O)c3c(F)cccc3F)c2)c(-c2ccnc(Nc3ccc(N4CCN(CCF)CC4)c(F)c3)n2)s1" , which is > 1000 nM

Input "COc1ccc(CCNc2ncnc(Nc3cc(-c4ccco4)[nH]n3)n2)cc1OC" . Output IC50: 5890 to 8590 nM
